Data provenance is the supplement of paper PMC10567573.

B1: BEX1 (parent)
chain: EENMERIGEEVRQLMEKLREKQLS

Variants of: B1
Assay: protein stability index of a GFP-peptide fusion (GPS, HEK-293T) (PSI 1-6); higher = more stable;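 further: lentivirally expressed fusions sorted by FACS into six bins by GFP to DsRed ratio, PSI derived from sequencing read proportions per bin multiplied by bin number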
Conditions: c terminus: a fixed tail appended
Can you tell me protein stability index for the items I'm about to list?
Respond numerically, and do not add a unit to the figure.

If you can, please state the reported protein stability index value of S24M .
4.43

If you can, please state the reported protein stability index value of E5V .
3.3

If you can, please state the reported protein stability index value of S24K .
3.54

If you can, please state the reported protein stability index value of K21I .
3.7

If you can, please state the reported protein stability index value of E1N .
4.31

If you can, please state the reported protein stability index value of E1L .
3.54

If you can, please state the reported protein stability index value of E5P .
4.77

If you can, please state the reported protein stability index value of G8E .
4.04

If you can, please state the reported protein stability index value of S24G .
4.78

If you can, please state the reported protein stability index value of S24W .
3.99

If you can, please state the reported protein stability index value of L18C .
3.82

If you can, please state the reported protein stability index value of I7Y .
4.92

If you can, please state the reported protein stability index value of E9Y .
4.17

If you can, please state the reported protein stability index value of K21H .
3.15

If you can, please state the reported protein stability index value of S24I .
3.97

If you can, please state the reported protein stability index value of M4S .
5.45

If you can, please state the reported protein stability index value of S24T .
4.29

If you can, please state the reported protein stability index value of R6E .
5.71

If you can, please state the reported protein stability index value of R12P .
5.1

If you can, please state the reported protein stability index value of G8R .
4.18

If you can, please state the reported protein stability index value of Q13E .
5.38

If you can, please state the reported protein stability index value of E16K .
4.32
